The values you see were collected from PubChem BioAssay AID2060896.

Record form. Attribute: viability, T/C. Fill in for each entry.
System: 941728-121-R-J1-PDC complex spheroid viability;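 also: spheroids exposed to compounds for 7 days before readout; 100% = DMSO vehicle control viability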
Experiment: Anticancer human tumor 941728-121-R-J1-PDC patient-derived lung adenocarcinoma cell line growth inhibition [RAS]
Conditions: second compound 0.0316 µM; first compound 0.1 µM; active compounds read low
Write the value in % as a bare number.

Kindly note the recorded viability, T/C for O=C(c1ccc(F)c(F)c1Nc1ccc(I)cc1F)N1CC(O)([C@@H]2CCCCN2)C1 + C#Cc1c(F)ccc2cc(O)cc(-c3ncc4c(N5CC6CCC(C5)N6)nc(OCC56CCCN5CC(F)C6)nc4c3F)c12 , which is 31.2

Kindly note the recorded viability, T/C for C[C@@H](NC(=O)c1ncnc(N)c1Cl)c1ncc(C(=O)Nc2cc(C(F)(F)F)c(Cl)cn2)s1 + C#Cc1c(F)ccc2cc(O)cc(-c3ncc4c(N5CC6CCC(C5)N6)nc(OCC56CCCN5CC(F)C6)nc4c3F)c12 , which is 102

Kindly note the recorded viability, T/C for CCC(CC)c1cc(NC2CCC(N)C2)n2nccc2n1 (stereo not given) + C=CC(=O)N1CCN(c2nc(OCC3CCCN3C)nc3c(F)c(-c4nc(N)cc(C)c4C(F)(F)F)c(Cl)cc23)C(C)C1 , which is 24.5

Kindly note the recorded viability, T/C for CC(=O)OC12COC1CC(O)C1(C)C(=O)C(O)C3=C(C)C(OC(=O)C(O)C(NC(=O)OC(C)(C)C)c4ccccc4)CC(O)(C(OC(=O)c4ccccc4)C21)C3(C)C (stereo not given) + C#Cc1c(F)ccc2cc(O)cc(-c3ncc4c(N5CC6CCC(C5)N6)nc(OCC56CCCN5CC(F)C6)nc4c3F)c12 , which is 39.7

Kindly note the recorded viability, T/C for CC(=O)OC12COC1CC(O)C1(C)C(=O)C(O)C3=C(C)C(OC(=O)C(O)C(NC(=O)OC(C)(C)C)c4ccccc4)CC(O)(C(OC(=O)c4ccccc4)C21)C3(C)C (stereo not given) + C=CC(=O)N1CCN(c2nc(OCC3CCCN3C)nc3c(F)c(-c4nc(N)cc(C)c4C(F)(F)F)c(Cl)cc23)C(C)C1 , which is 14.1

Kindly note the recorded viability, T/C for CC(C)NCC(C(=O)N1CCN(c2ncnc3c2C(C)CC3O)CC1)c1ccc(Cl)cc1 (stereo not given) + C=CC(=O)N1CCN(c2nc(OCC3CCCN3C)nc3c(F)c(-c4nc(N)cc(C)c4C(F)(F)F)c(Cl)cc23)C(C)C1 , which is 17.3

Kindly note the recorded viability, T/C for CC(C)n1nc(-c2ccc3oc(N)nc3c2)c2c(N)ncnc21 + C#Cc1c(F)ccc2cc(O)cc(-c3ncc4c(N5CC6CCC(C5)N6)nc(OCC56CCCN5CC(F)C6)nc4c3F)c12 , which is 26.3

Kindly note the recorded viability, T/C for CC1(O)CCCC1n1c(=O)c(C(F)F)cc2cnc(NC3CCN(S(C)(=O)=O)CC3)nc21 (stereo not given) + C=CC(=O)N1CCN(c2nc(OCC3CCCN3C)nc3c(F)c(-c4nc(N)cc(C)c4C(F)(F)F)c(Cl)cc23)C(C)C1 , which is 17.9

Kindly note the recorded viability, T/C for Nc1ccn(C2OC(CO)C(O)C2(F)F)c(=O)n1 (stereo not given) + C=CC(=O)N1CCN(c2nc(OCC3CCCN3C)nc3c(F)c(-c4nc(N)cc(C)c4C(F)(F)F)c(Cl)cc23)C(C)C1 , which is 13.3

Kindly note the recorded viability, T/C for NC1c2ccccc2OC12CCN(c1cnc3c(N4CCCc5ncccc54)n[nH]c3n1)CC2 (stereo not given) + C=CC(=O)N1CCN(c2nc(OCC3CCCN3C)nc3c(F)c(-c4nc(N)cc(C)c4C(F)(F)F)c(Cl)cc23)C(C)C1 , which is 15.7
